Listed here are compounds together with their documented In vivo activity D2: DOPAC elevation (ED200).
- STUDY_SYSTEM: dopamine D2 receptors (Rattus norvegicus, UniProt P61169)
- Construct: from tissue; host or cells: male Sprague Dawley rats, nucleus accumbens (in vivo)
- Sequence (P61169 whole entry): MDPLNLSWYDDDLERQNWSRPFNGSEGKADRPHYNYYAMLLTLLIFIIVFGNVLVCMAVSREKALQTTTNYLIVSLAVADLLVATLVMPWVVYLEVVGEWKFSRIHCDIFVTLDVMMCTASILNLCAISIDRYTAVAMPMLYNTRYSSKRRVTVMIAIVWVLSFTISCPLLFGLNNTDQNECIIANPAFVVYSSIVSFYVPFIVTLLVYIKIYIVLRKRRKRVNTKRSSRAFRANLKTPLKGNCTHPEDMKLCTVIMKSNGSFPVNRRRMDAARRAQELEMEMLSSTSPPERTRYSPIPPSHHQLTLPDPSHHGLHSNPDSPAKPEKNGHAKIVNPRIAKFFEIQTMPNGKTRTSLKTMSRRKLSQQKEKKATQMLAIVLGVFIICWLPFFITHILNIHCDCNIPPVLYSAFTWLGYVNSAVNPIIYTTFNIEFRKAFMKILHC
- MEASUREMENT_PROTOCOL: DOPAC concentrations in rat nucleus accumbens (in vivo D2 receptor blockade)
- CONDITIONS: dose that increases DOPAC to 200% of control, 90 minutes after gavage
- Procedure: Antipsychotics are believed to exert at least part of their therapeutic effects through blockade of the dopamine D2 receptor. The ability of a compound to block dopamine D2 receptors in the rat in vivo was determined by measuring the effect of the compound on the level of DOPAC (3,4-dihydroxyphenylacetic acid), a metabolite of dopamine, in nucleus accumbeus of the rat. […]
Counter-ions that a name gives are not always drawn.

Reference set, count: 3
COMPOUND	MEASUREMENT
COCC[C@H]1CN(C2=Nc3cc(F)c(F)cc3Nc3sc(C)cc32)CCN1C.Cl.Cl	6.4 mg/kg, po
COCC[C@H]1CN(C2=Nc3ccccc3Nc3sc(C(C)C)nc32)CCN1C.Cl.Cl	4 mg/kg, po
COCC[C@H]1CN(C2=Nc3ccc(F)cc3Nc3sc(C)cc32)CCN1C [Example 279, hydrochloride]	6 mg/kg, po

As a next step, examine the compound that follows.
Prompt: Fill in In vivo activity D2: DOPAC elevation (ED200) for record COCC[C@H]1CN(C2=Nc3cc(Cl)ccc3Nc3sc(C)cc32)CCN1C [Example 292, dihydrochloride]
Completion: 7.5 mg/kg, po

* * *

Listed here are compounds together with their documented Ki.
- STUDY_SYSTEM: Dopamine D2 receptor (Homo sapiens)
- Construct: purchased Receptor Biology (now owned by NEN) RBHD2CM
- Sequence (P14416 1-414 isoform P14416-2): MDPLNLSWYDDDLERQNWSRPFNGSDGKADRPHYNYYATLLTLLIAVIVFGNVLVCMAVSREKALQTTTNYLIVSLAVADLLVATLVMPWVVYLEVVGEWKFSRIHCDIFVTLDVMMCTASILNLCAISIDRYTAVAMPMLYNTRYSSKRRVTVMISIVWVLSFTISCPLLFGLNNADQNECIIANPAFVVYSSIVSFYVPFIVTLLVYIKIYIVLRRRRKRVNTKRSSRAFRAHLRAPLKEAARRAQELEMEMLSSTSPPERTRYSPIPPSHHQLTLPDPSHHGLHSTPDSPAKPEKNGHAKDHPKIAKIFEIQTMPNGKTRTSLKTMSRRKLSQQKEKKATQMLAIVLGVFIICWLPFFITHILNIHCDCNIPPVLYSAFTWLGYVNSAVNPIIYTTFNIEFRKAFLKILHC
- MEASUREMENT_PROTOCOL: Dopamine D2 receptor binding assay ([125I]iodospiperone)
- CONDITIONS: relative Ki scale of Table 5; read-out: Relative D2 Receptor Binding Affinity Ki
Structures can show the parent of a compound that is named as a salt.

# annotated cases, reported Ki shown
COMPOUND	STUDY_SYSTEM	Ki
COCC[C@H]1CN(C2=Nc3ccccc3Nc3sc(C(F)F)nc32)CCN1 [Example 316]	Dopamine D2 receptor (Homo sapiens)	< 10 nM
CC(C)c1nc2c(s1)Nc1ccccc1N=C2N1CCN[C@@H](CC(C)(C)O)C1 [Example 367, dihydrochloride]	Dopamine D2 receptor (Homo sapiens)	< 10 nM
COCC[C@H]1CN(C2=Nc3ccccc3Nc3sc(C)nc32)CCN1C [Example 320, dihydrochloride]	Dopamine D2 receptor (Homo sapiens)	10 to 100 nM
CCOC(=O)c1nc2c(s1)Nc1ccccc1N=C2N1CCN(C)[C@@H](CCOC)C1 [Example 333, dihydrochloride]	Dopamine D2 receptor (Homo sapiens)	100 to 1000 nM
CCN1CCN(C2=Nc3ccccc3Nc3sc(C(F)(F)F)nc32)C[C@@H]1CCOC [Example 344]	Dopamine D2 receptor (Homo sapiens)	< 10 nM
CCOCC[C@H]1CN(C2=Nc3ccccc3Nc3sc(C(C)C)nc32)CCN1 [Example 309]	Dopamine D2 receptor (Homo sapiens)	10 to 100 nM
COCC[C@H]1CN(C2=Nc3ccccc3Nc3sc(C)cc32)CCN1C [Example 267, dihydrochloride]	Dopamine D2 receptor (Homo sapiens)	10 to 100 nM

Prompt: Provide Ki value for the following compound: COCC[C@H]1CN(C2=Nc3ccccc3Nc3sc(C(F)(F)F)nc32)CCN1CCOCCO [Example 357]
Completion: 10 to 100 nM
